Values were extracted from patent US11667638B2.

assayed.system: α4β2 nAChR (Homo sapiens (Human), UniProt P17787+P43681)
Sequence (P43681 29-627 limits assumed): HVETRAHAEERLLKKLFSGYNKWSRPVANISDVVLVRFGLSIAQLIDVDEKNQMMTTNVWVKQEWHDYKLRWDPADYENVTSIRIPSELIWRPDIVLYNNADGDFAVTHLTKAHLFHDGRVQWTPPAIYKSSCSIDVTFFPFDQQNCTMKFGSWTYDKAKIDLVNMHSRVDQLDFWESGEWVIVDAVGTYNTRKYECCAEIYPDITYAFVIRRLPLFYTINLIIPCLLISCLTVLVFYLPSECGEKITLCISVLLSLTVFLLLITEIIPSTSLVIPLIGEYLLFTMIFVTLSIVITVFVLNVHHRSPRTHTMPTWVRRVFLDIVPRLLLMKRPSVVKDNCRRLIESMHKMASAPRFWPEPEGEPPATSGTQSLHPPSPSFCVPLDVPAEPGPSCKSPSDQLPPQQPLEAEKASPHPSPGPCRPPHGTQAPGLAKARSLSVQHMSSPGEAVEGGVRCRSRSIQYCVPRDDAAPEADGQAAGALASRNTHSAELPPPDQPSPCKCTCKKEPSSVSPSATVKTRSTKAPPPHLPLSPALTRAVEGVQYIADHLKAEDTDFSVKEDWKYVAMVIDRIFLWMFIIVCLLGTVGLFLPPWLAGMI
Sequence (P17787 26-502 limits assumed): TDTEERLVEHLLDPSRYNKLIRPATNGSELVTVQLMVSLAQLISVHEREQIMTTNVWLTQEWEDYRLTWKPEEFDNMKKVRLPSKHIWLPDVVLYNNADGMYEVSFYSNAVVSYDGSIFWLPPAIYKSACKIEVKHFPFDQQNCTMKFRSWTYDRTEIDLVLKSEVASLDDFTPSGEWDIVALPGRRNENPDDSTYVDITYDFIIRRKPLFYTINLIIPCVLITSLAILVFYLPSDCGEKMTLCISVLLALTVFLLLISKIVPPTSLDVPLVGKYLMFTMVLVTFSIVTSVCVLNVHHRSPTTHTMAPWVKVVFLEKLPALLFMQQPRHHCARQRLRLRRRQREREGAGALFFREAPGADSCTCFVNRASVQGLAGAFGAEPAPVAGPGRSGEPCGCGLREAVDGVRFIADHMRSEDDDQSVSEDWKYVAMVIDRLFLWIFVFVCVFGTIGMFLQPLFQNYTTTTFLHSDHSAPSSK
Format: binding
measurement.conditions: ratio of Ki values
Would you mind classing the entries by Ratio α3β4/α4β2? Ranges: b0 (below 90), b1 (90 to below 200), b2 (200 or more)

molecule | assayed.system | qualitative.label
O=c1cc(N2CCOCC2)cc2n1CC1CNC[C@@H]2C1 (single isomer, unassigned; (+)) [Compound 92, (+)4-N-morpholinecytisine] | α4β2 nAChR (Homo sapiens (Human), UniProt P17787+P43681) | b0
Cl.O=c1cc(CO)cc2n1CC1CNC[C@@H]2C1 (single isomer, unassigned; (-)) [Compound 122, (−)4-(Hydroxymethyl)cytisine] | α4β2 nAChR (Homo sapiens (Human), UniProt P17787+P43681) | b0
CC(=O)Nc1cc2n(c(=O)c1)CC1CNC[C@@H]2C1.Cl (single isomer, unassigned; (+)) [Compound 94, (+)4-(N-acetylamino)cytisine] | α4β2 nAChR (Homo sapiens (Human), UniProt P17787+P43681) | b2
COc1cc2n(c(=O)c1)CC1CNC[C@@H]2C1 (single isomer, unassigned; (-)) [Compound 69, (−)4-Methoxycytisine] | α4β2 nAChR (Homo sapiens (Human), UniProt P17787+P43681) | b2
CCNc1cc2n(c(=O)c1)CC1CNCC2C1 (single isomer, unassigned; (+)) [Compound 87, (+)4-(N-ethylamino)cytisine] | α4β2 nAChR (Homo sapiens (Human), UniProt P17787+P43681) | b2
C#Cc1cc2n(c(=O)c1)CC1CNC[C@@H]2C1.Cl (single isomer, unassigned; (-)) [Compound 127, (−)4-(acetylenyl)cytisine] | α4β2 nAChR (Homo sapiens (Human), UniProt P17787+P43681) | b2
O=c1cccc2n1C[C@@H]1CNC[C@H]2C1 | α4β2 nAChR (Homo sapiens (Human), UniProt P17787+P43681) | b0
Cl.O=c1cc(CC(F)(F)F)cc2n1CC1CNC[C@@H]2C1 (single isomer, unassigned; (-)) [Compound 79, (−)4-(2,2,2-Trifluoroethyl)cytisine] | α4β2 nAChR (Homo sapiens (Human), UniProt P17787+P43681) | b0
Cc1ccc(-c2cc3n(c(=O)c2)CC2CNC[C@@H]3C2)cc1 (single isomer, unassigned; (+)) [Compound 73, (+)4-p-Tolylcytisine] | α4β2 nAChR (Homo sapiens (Human), UniProt P17787+P43681) | b1
CNc1cc2n(c(=O)c1Br)CC1CNC[C@@H]2C1 (single isomer, unassigned; (+)) [Compound 158, (+)3-Bromo-4-N-methylaminocytisine] | α4β2 nAChR (Homo sapiens (Human), UniProt P17787+P43681) | b1
Cl.O=c1cc(C#Cc2ccccc2)cc2n1CC1CNC[C@@H]2C1 (single isomer, unassigned; (+)) [Compound 129, (+)4-(phenylacetylene)cytisine] | α4β2 nAChR (Homo sapiens (Human), UniProt P17787+P43681) | b0
CNc1cc2n(c(=O)c1)CC1CNC[C@@H]2C1 (single isomer, unassigned; (+)) [Compound 84, (+)4-(N-Methylamino)cytisine] | α4β2 nAChR (Homo sapiens (Human), UniProt P17787+P43681) | b2
Cl.O=c1cc(/C=C/c2ccccc2)cc2n1CC1CNC[C@@H]2C1 (single isomer, unassigned; (+)) [Compound 114, (+)4-(E-(2-phenylethenyl))cytisine] | α4β2 nAChR (Homo sapiens (Human), UniProt P17787+P43681) | b1
COC(=O)c1cc2n(c(=O)c1)CC1CNC[C@@H]2C1 (single isomer, unassigned; (-)) [Compound 119, (−)4-carboxymethycytisine] | α4β2 nAChR (Homo sapiens (Human), UniProt P17787+P43681) | b2
O=c1cc(-c2nnn[nH]2)cc2n1CC1CNC[C@@H]2C1 (single isomer, unassigned; (-)) [Compound 149, (−)4-tetrazoylcytisine] | α4β2 nAChR (Homo sapiens (Human), UniProt P17787+P43681) | b1
O=c1cc(NCc2ccccc2)cc2n1CC1CNC[C@@H]2C1 | α4β2 nAChR (Homo sapiens (Human), UniProt P17787+P43681) | b1
CN(C)c1cc2n(c(=O)c1)CC1CNC[C@@H]2C1 (single isomer, unassigned; (+)) [Compound 86, (+)4-(N,N′-dimethylamino)cytisine] | α4β2 nAChR (Homo sapiens (Human), UniProt P17787+P43681) | b0
Cc1cc2n(c(=O)c1)CC1CNC[C@@H]2C1.Cl (single isomer, unassigned; (-)) [Compound 110, (−)4-Methylcytisine] | α4β2 nAChR (Homo sapiens (Human), UniProt P17787+P43681) | b2
O=C(O)c1cc2n(c(=O)c1)CC1CNC[C@@H]2C1 (single isomer, unassigned; (-)) [Compound 120, (−)4-Carboxylic acidcytisine] | α4β2 nAChR (Homo sapiens (Human), UniProt P17787+P43681) | b0
Cl.O=c1c(C(F)(F)F)c(Br)cc2n1CC1CNC[C@@H]2C1 (single isomer, unassigned; (-)) [Compound 162, (−)3-(Trifluoromethyl)-4-bromocytisine] | α4β2 nAChR (Homo sapiens (Human), UniProt P17787+P43681) | b1
O=c1cc(-c2ccncc2)cc2n1CC1CNC[C@@H]2C1 (single isomer, unassigned; (-)) [Compound 103, (−)4-(4-Pyridinyl)cytisine] | α4β2 nAChR (Homo sapiens (Human), UniProt P17787+P43681) | b2
